Attribution: patent US20250101017A1

- experiment description: Solubility of crystal form Form T in different solutions at 37° C. (about 60 mg in 2 mL, 2 h and 24 h; HPLC, pH, XRPD)
- Format: physicochemical
- run conditions: thermodynamic from solid; FaSSIF, 37° C., 24 h
quantity: solubility at 24 h

Which solubility at 24 h is listed for CCc1nc2c(N)ncc(-c3ccc(N4CCC(N5CCN(CC)CC5)CC4)c(OC)c3)c2nc1NC1CCOCC1 [Form T] ? 700 µg/mL

----------
- experiment description: Solubility at 37° C. in buffer solutions with different pH (about 10 mg in 1 ml, 2 h and 24 h); filtrate concentration and pH, XRPD of remaining solid
- Type: physicochemical
- run conditions: pH 3.0 buffer solution, 37 °C, pH 3, aqueous buffer, thermodynamic from solid, medium pH 3.0, 2 h; read-out: Solubility at 37° C. (mg/ml) 2 h
quantity: solubility at 2 h

Which solubility at 2 h is listed for CCc1nc2c(N)ncc(-c3ccc(N4CCC(N5CCN(CC)CC5)CC4)c(OC)c3)c2nc1NC1CCOCC1 [Free base Form A] ? > 10 mg/mL
